Tested on: BT-549 breast
assay.comment: NCI tumour cell line growth inhibition, 48 h
Would you kindly list TGI for each of these compounds?

Entry under review: CC1(C(=O)O)CCCC1C(=O)O (stereo not drawn) . Reported TGI?
> 100 µM

Which TGI is listed for CC(C)(CC(=O)Nc1ccccc1)C(=O)O ?
> 100 µM

Give the measured TGI of CN1CCN(C)C12C=c1ccccc1=CC21CC1 .
> 100 µM

====

Test system: NCI-H226 lung
assay.comment: NCI tumour cell line growth inhibition, 48 h
Could you please report measured TGI for the items listed next?
Numeric answer only, unit µM assumed.

Quick one: TGI of Nc1cc(N)c2nc(-c3ccccc3)c(Nc3ccc(Cl)c(Cl)c3)nc2c1 ?
37.6

Entry O=[N+]([O-])c1ccc(NC(=S)N=Nc2c(O)[nH]c3ccc(Br)cc23)cc1 has what TGI?
38.1

# TGI lookup, item C=CCCCCCCCCC(=O)[O][Sn]([CH2]CCC)([CH2]CCC)[CH2]CCC
0.325

Item CC(C)c1nc(CN(C)C(=O)N[C@H](C(=O)N[C@@H](Cc2ccccc2)C[C@H](O)[C@H](Cc2ccccc2)NC(=O)OCc2cncs2)C(C)C)cs1 has what recorded TGI?
39.4

Dear colleague, I am looking for the recorded TGI of the following compound: O=C(Nc1cccc(O)c1)C(=O)C(C(=O)c1ccccc1F)C1OC(=O)c2ccccc21 (stereo unspecified)
49.1
